From: patent US12642776B2

# System: Eimeria tenella protozoan (sporozoite)
# test.summary: Direct killing effect against Eimeria tenella protozoan (sporozoite), microscopic count of alive sporozoites
# experimental.conditions: 16 ppm
property.label: Protozoal death rate by material treatment concentration (%)
Value expressed in %; do not type the unit.

Sample records with Protozoal death rate by material treatment concentration (%):
compound: O=C(O)c1cc(O)c(O)c(O)c1 [Gallic acid, gallic acid, reference compound]
endpoint.result: 0
--
compound: N#CC(c1ccc(Cl)cc1)c1c(Cl)cc(-n2ncc(=O)[nH]c2=O)cc1Cl (stereo not shown) [Diclazuril, diclazuril, reference compound]
endpoint.result: 0
--
compound: COc1cc(/C=C/c2ccc(O)cc2)cc(OC)c1 [Pterostilbene, 3,5-Dimethoxy-4′-hydroxystilbene]
endpoint.result: 33.3

Let us examine a further case.
Fill in the blank: the reported Protozoal death rate by material treatment concentration (%) of COc1cc(O)cc(/C=C/c2ccc(O)cc2)c1 [Pinostilbene, 3-Methoxy-4′,5-dihydroxy-trans-stilbene] is ____.
0

----------
# key: entry, value: Protozoal death rate by material treatment concentration (%)
# System: Eimeria tenella protozoan (sporozoite)
# test.summary: Direct killing effect against Eimeria tenella protozoan (sporozoite), microscopic count of alive sporozoites
# experimental.conditions: 32 ppm
# Procedure: In the present example, protozoan (sporozoite) direct killing ability evaluation was conducted against 1 representative Eimeria kind known to be infected in most farms (E. tenella). […] After reacting the pterostilbene, pinostilbene and anticoccidial agents, diclazuril and gallic acid (hereinafter, material) with the protozoan of Eimeria tenella at various concentrations of 16 to 500 ppm, respectively, only alive protozoa (sporozoites) were counted through microscopic observation.
Reply numerically in %, unit not repeated.

Some compounds with known Protozoal death rate by material treatment concentration (%) results, for comparison:
compound: O=C(O)c1cc(O)c(O)c(O)c1 [Gallic acid, gallic acid, reference compound]
unit.info: %
endpoint.result: 0

compound: COc1cc(/C=C/c2ccc(O)cc2)cc(OC)c1 [Pterostilbene, 3,5-Dimethoxy-4′-hydroxystilbene]
unit.info: %
endpoint.result: 63.4

compound: COc1cc(O)cc(/C=C/c2ccc(O)cc2)c1 [Pinostilbene, 3-Methoxy-4′,5-dihydroxy-trans-stilbene]
unit.info: %
endpoint.result: 0

Now look at this entry.
Using the record for N#CC(c1ccc(Cl)cc1)c1c(Cl)cc(-n2ncc(=O)[nH]c2=O)cc1Cl (stereo not shown) [Diclazuril, diclazuril, reference compound] , report its Protozoal death rate by material treatment concentration (%).
0
